Species on record: Rattus norvegicus
assayProtocol: Open TG-GATES - Regimen: Daily Repeat
Type: toxicity, organism-based, Sprague-Dawley
Design: regimen Daily Repeat, gender Male, age 6 weeks
details: in vivo, po, 0 mg/kg, […], tissue Blood, route gavage, dose level Control, time 28 day
attributeMeasured: Fbg

Observe how each entry below is paired with its result.
C#C[C@]1(O)CC[C@H]2[C@@H]3CCC4=Cc5oncc5C[C@]4(C)[C@H]3CC[C@@]21C : 293 mg/dL
CCOC(=O)[C@H](CCc1ccccc1)N[C@@H](C)C(=O)N1CCC[C@H]1C(=O)O : 249 mg/dL
O=C(O)Cc1ccccc1Nc1c(Cl)cccc1Cl : 219.8 mg/dL
Clc1c(Cl)c(Cl)c(Cl)c(Cl)c1Cl : 221 mg/dL
CC(CN1c2ccccc2Sc2ccccc21)N(C)C (stereo not given) : 341.8 mg/dL
Cc1cccc(Nc2ccccc2C(=O)O)c1C : 249 mg/dL

Value sought for every listed compound: Fbg.
1. CN1C(C(=O)Nc2ccccn2)=C(O)c2sc(Cl)cc2S1(=O)=O
2. CC(=O)Nc1nnc(S(N)(=O)=O)s1 [ACETAZOLAMIDE]
3. CN(C)[C@@H]1C(O)=C(C(N)=O)C(=O)[C@@]2(O)C(O)=C3C(=O)c4c(O)cccc4[C@@](C)(O)[C@H]3C[C@@H]12
4. C1CCC(C(CC2CCCCN2)C2CCCCC2)CC1 (stereo not given)

(A)
1: 223.4 mg/dL; 2: 316 mg/dL; 3: 235.8 mg/dL; 4: 316.4 mg/dL

// data source = ChEMBL document CHEMBL3885861
